- assay.details: PK study in CD-1 male mice with IV and PO dosing (Example 3)
- Assay type: in vivo
- experimental.context: male, CD-1, mouse, in vivo, iv, 1.5 mg/kg, Vss
metric: Vd
Reply with the number, then its unit.

stdin: Return reported Vd; argument: Cc1cc(Nc2cc(N)ncn2)c(=O)n2c1C(=O)NC21CCC2(CC2)CC1 [4ET-03-053]
stdout: 5.63 L/kg

* * *

- assay.details: Plasma and brain concentrations, brain:plasma ratio in rats 2 hr after single PO 1 mg/kg (Example 5)
- Format: in vivo
- experimental.context: male, Sprague-Dawley, rat, plasma, po, 1 mg/kg, rats, plasma, 2 hr after single PO 1 mg/kg; individual animals (n = 3); read-out: Plasma Conc.
metric: concentration at 2 hr (ng/mL)
Express it in ng/mL; write the number only.

stdin: Return reported concentration at 2 hr; argument: "Cc1cc(Nc2cc(N)ncn2)c(=O)n2c1C(=O)NC21CCC2(CC2)CC1"
stdout: 506

* * *

- assay.details: PK study in male Sprague-Dawley rats, IV 0.5 mg/kg and PO 1 mg/kg in 10% DMA/PG (Example 5)
- Type: in vivo
- experimental.context: male, Sprague-Dawley, rat, in vivo, iv, 0.5 mg/kg, AUCinf
metric: AUC(0-inf) (ng·h/mL)
Express it in ng·h/mL; write the number only.

stdin: Return reported AUC(0-inf); argument: Cc1cc(Nc2cc(N)ncn2)c(=O)n2c1C(=O)NC21CCC2(CC2)CC1 [4ET-03-053]
stdout: 4080

* * *

- assay.details: PK study in male Sprague-Dawley rats dosed once per day for five days, PO 1 mg/kg, 0.5% HPMC (Example 6)
- Type: in vivo
- experimental.context: male, Sprague-Dawley, rat, in vivo, po, 1 mg/kg, Sprague-Dawley rats, day 5 of daily PO 1 mg/kg, 0.5% HPMC suspension; individual animals
metric: AUC(0-t) (ng·h/mL)
Express it in ng·h/mL; write the number only.

stdin: Return reported AUC(0-t); argument: Cc1cc(Nc2cc(N)ncn2)c(=O)n2c1C(=O)NC21CCC2(CC2)CC1 [4ET-03-053]
stdout: 47100

* * *

- assay.details: PK study in male Sprague-Dawley rats, IV 0.5 mg/kg and PO 1 mg/kg in 10% DMA/PG (Example 5)
- Type: in vivo
- experimental.context: male, Sprague-Dawley, rat, in vivo, iv, 0.5 mg/kg, CLp
- Procedure: Example 5: PK study of 4ET-03-053 in male Sprague-Dawley rats with IV (0.5 mg kg; 10% DMI 15% EtOH 35% PG 40% NS) and PO (1 mg kg; 10% DMA PG) dosing In male Sprague-Dawley rats, following IV administration with 0.5 mg/kg 4ET-03-053, plasma concentrations declined in a multiphasic manner with an initial concentration (Co) of 1.24 ug/mL and a last measurable concentration (Clast) of 33.2 ng/mL at 24 h post dose. […]
metric: clearance (mL/min/kg)
Express it in mL/min/kg; write the number only.

stdin: Return reported clearance; argument: "Cc1cc(Nc2cc(N)ncn2)c(=O)n2c1C(=O)NC21CCC2(CC2)CC1"
stdout: 2.04

* * *

- assay.details: PK study in CD-1 male mice with IV and PO dosing (Example 3)
- Type: in vivo
- experimental.context: male, CD-1, mouse, in vivo, po, 10 mg/kg, AUCinf
metric: AUC(0-inf) (ng·h/mL)
Express it in ng·h/mL; write the number only.

stdin: Return reported AUC(0-inf); argument: Cc1cc(Nc2cc(N)ncn2)c(=O)n2c1C(=O)NC21CCC2(CC2)CC1 [4ET-03-053]
stdout: 6670
